Test system: HOP-92 NSCLC
Assay: NCI-60 one-dose screen, 48 h
Details: 10 µM unless noted
Compounds without any hit were thinned out: in the full panel of roughly 83,000, 20% have a hit. The source made the active and inactive calls. The calls were made as follows: active = growth percent below 10; inactive = the rest.
Labels: 1 (yes) (active), 0 (no) (inactive)

* C/C(Cc1ccc(Cl)cc1)=C(\c1ccc(OCCN2CCCCCC2)cc1)c1ccc(OC(=O)Cc2ccccc2)cc1 | 0 (no)
* COc1ccc(-c2cc(-c3cccnc3)nc3sc4c(=O)n(-c5ccc(C)cc5)cnc4c23)cc1OC | 0 (no)
* CN1CCN(Cc2ccc(NC(=O)c3cncc(C#Cc4c(N)ncc5ccc(C#N)cc45)c3)cc2C(F)(F)F)CC1 | 0 (no)
* O=C(N/N=C/c1ccc(O)cc1O)c1cccnc1 | 0 (no)
* CCOC(=O)C(CC)n1c(=O)c2cc(OC)c(OC)cc2c2cnc3[nH]ccc3c21 (stereo not drawn) | 0 (no)
* CCNS(=O)(=O)c1ncnc2nc[nH]c12 | 0 (no)
* CNC(=O)c1cc(Oc2ccc3nc(NC(=O)Nc4ccc(N5CCC(N(C)C)CC5)cc4)sc3c2)ccn1 | 0 (no)
* CCCCCN(CCCCC)CCC[C@@H](C)[C@H]1CC[C@H]2[C@@H]3[C@H](OCCCN)C[C@@H]4C[C@H](OCCCN)CC[C@]4(C)[C@H]3C[C@H](OCCCN)[C@]12C | 0 (no)
* O=C1c2cc3c(cc2-c2c1c1cc(Cl)c(Cl)cc1c(=O)n2C[C@H](O)CO)OCO3 | 1 (yes)
* COc1cc2nc3cc([N+](=O)[O-])ccc3c(NCCCNCC(C)(C)O)c2cc1OC | 1 (yes)
* C[C@@H]1CCC2=C(CCC[C@]2(C)C(=O)O)[C@@]1(C)CCc1ccoc1 | 0 (no)
* Nc1nc(SCc2ccccc2)c2ncn(C3CCCC3)c2n1 | 0 (no)
* CC(C)C1=C[C@@]23CC[C@@H]4[C@](C)(CCC[C@@]4(C)C(=O)OCC#CCN4CCCC4)[C@H]2C[C@@H]1[C@H]1C(=O)OC(=O)[C@H]13 | 0 (no)
* COc1ccc(CN(c2ccc(C)cc2)C2OC(=O)c3ccccc32)cc1OC (stereo not drawn) | 0 (no)
* CC(=O)Nc1ccc2c(c1)c(NC(C)=O)nn2C(=O)Nc1ccc(Cc2ccccc2)cc1 | 1 (yes)
* CC(C)CC(CC1=CCC2CC1C2(C)C)C1=C(O)C(C)(C)C(=O)C(C)(C)C1=O (stereo not drawn) | 1 (yes)
* COc1ccc(/C=C/C(=O)c2c(O)c(C)c(O)c3c2OC2=CC(O)=C(C(C)=O)C(=O)[C@]23C)cc1 | 1 (yes)
* Cc1ccc(-c2nc(/C=N/Nc3cc(C)nc4ccc(Br)cc34)c(C)o2)cc1 | 0 (no)

###

Test system: 786-0 renal
Assay: NCI-60 one-dose screen, 48 h
Details: 10 µM unless noted
About 83,000 compounds went through this panel and 20% of them were active in at least one assay; those are over-represented in the sample as a whole. Active and inactive are the calls of the source. The calls were made as follows: active = growth percent below 10; inactive = the rest.
Outcomes: Yes for active, No for inactive

• Nc1ccc(N2CCOCC2)cc1 = No
• O=C(CN1CCN(c2cc3c(cc2F)c(=O)c(C(=O)O)cn3C2CC2)CC1)Nc1nc(-c2ccc(Cl)cc2)cs1 = No
• COc1ccc(OCC(=O)Nc2ccc(-c3nc4ccccc4s3)cc2C)cc1 = No
• Clc1nc(Cl)c2c3c(sc2n1)CCCC3 = No
• Cc1ccc2c(NCCCN(C)C)c3c(C)nn(C)c3nc2c1 = No
• C=CC[N+]1(CC)CCN=C1CCCCCCCCCCCCCCCCC (stereo unspecified) = Yes
• COc1ccc(C(=O)/C=C/c2c[n+](=O)c3ccc(F)cc3n2[O-])cc1 = No
• Nc1nc2c(c3ncccc13)C(c1ccc(Cl)c(Cl)c1)Cc1ncccc1-2 (stereo unspecified) = No
• CCOC(=O)C12CCCC1=CC(=O)CC2 (stereo unspecified) = No
• O=C1CC(c2nc3ccccc3[nH]2)CN1C1CCCCC1 (stereo unspecified) = No
• O=C(/C=C/c1ccc(Cl)cc1)c1ccc(O)c(CN2CCN(c3cc4c(cc3F)c(=O)c(C(=O)O)cn4C3CC3)CC2)c1 = No

Sourced from PubChem BioAssay (NCI)
